B1: CDKN1A (parent)
chain: RRQTSMTDFYHSKRRLIFSKRKP

- Variants of: B1
- assay text: protein stability index of a GFP-peptide fusion (GPS, HEK-293T) (PSI 1-6); higher = more stable;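 also: lentivirally expressed fusions sorted by FACS into six bins by GFP to DsRed ratio, PSI derived from sequencing read proportions per bin multiplied by bin number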
- test parameters: c terminus: native
Task for the reader: assign each of the following variants its reported protein stability index.
Output spec: single numeric token, no unit.

query: Fill in: protein stability index of `K13C` is ___
result: 3.33

query: Recorded protein stability index for `Y10A` , please?
result: 3.44

query: If you can, please state the reported protein stability index value of `R1Y` .
result: 2.74

query: I would be grateful if you could share the reported protein stability index for `P23F` .
result: 2.76

query: # lookup: protein stability index of `P23I`
result: 2.74

query: # lookup: protein stability index of `R21L`
result: 2.67

query: Returns the measured protein stability index for the input variant. Input: `K22T`
result: 2.58

query: Which value of protein stability index has been reported for `K13H` in the records?
result: 1.75

query: Consider the variant `K22V` and give its measured protein stability index.
result: 3.36

query: // query protein stability index value for entry `H11D`
result: 1.65

query: For the variant shown here, `R1V` , give the reported protein stability index.
result: 2.34

query: I am curious: what protein stability index value has been reported for `K13W` ?
result: 2.83

query: Request the reported protein stability index associated with `T4L`
result: 2.1

query: Bench note: what protein stability index did `K13A` show?
result: 3

query: State the recorded protein stability index for this entry: `R15D`
result: 3.82

query: Recorded protein stability index of `Q3K` , please.
result: 2.72

query: Can you share its protein stability index? I mean this variant: `P23A`
result: 1.85

query: Please report the recorded protein stability index for `S19K` .
result: 1.91

query: Form field: reported protein stability index of `R1S`
result: 2.99

query: // returns reported protein stability index for input `S5M`
result: 2.73

query: For the variant `K22W` , what protein stability index is on record?
result: 2.91

query: Record request: protein stability index value, item `S12N`
result: 3.42
